Listing: kinase still bound, per cent of control of selected molecules
- Tested on: ABL1 (human), P00519 [F317L]
- Sequence (P00519 whole entry F317L, looked up): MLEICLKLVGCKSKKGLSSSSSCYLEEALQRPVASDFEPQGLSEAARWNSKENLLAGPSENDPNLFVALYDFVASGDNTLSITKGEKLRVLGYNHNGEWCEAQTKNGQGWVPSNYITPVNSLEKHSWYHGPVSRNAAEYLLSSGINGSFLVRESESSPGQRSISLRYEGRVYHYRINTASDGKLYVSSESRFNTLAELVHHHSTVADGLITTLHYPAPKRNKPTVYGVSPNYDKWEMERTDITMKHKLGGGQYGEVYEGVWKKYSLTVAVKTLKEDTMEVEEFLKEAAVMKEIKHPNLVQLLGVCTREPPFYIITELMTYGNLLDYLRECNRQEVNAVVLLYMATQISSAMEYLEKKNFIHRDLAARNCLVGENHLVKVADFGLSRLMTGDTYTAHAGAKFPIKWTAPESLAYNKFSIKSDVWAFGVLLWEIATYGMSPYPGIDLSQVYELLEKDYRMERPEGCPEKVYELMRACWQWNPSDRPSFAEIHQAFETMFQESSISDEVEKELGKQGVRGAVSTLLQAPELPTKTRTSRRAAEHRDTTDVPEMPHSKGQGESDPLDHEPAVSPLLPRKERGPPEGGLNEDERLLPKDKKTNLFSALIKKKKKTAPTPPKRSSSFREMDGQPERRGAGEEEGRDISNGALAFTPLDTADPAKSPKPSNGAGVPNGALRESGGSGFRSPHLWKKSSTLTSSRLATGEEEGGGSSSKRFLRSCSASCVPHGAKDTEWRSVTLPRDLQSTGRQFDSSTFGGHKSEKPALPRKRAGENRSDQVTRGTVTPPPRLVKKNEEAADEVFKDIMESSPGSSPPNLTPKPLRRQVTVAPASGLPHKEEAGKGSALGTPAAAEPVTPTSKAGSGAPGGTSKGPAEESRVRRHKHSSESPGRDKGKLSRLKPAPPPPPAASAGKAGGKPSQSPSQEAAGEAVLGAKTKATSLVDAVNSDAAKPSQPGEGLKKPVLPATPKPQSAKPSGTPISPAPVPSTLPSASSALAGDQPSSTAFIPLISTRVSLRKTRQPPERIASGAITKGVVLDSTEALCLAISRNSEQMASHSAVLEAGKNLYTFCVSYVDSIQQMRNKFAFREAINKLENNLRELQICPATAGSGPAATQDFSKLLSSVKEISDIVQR
- test_details: KINOMEscan competition binding
- measurement_parameters: compound 10.0 µM
Entry rule: numbers only, all in %.

molecule	result_unit	kinase still bound, per cent of control
CN1C(=O)c2ccccc2N(C)c2nc(Nc3ccc(N4CCC(O)CC4)cc3)ncc21	%	20
COc1cc(N2CCN(C)CC2)ccc1Nc1ncc2c(n1)N(C1CCCC1)C(C)CC(=O)N2 (stereo unspecified)	%	30
COc1cc(N2CCN(C)CC2)ccc1Nc1ncc2c(n1)Nc1ccccc1NC2=O	%	29
COc1cc(N2CCC(O)CC2)ccc1Nc1ncc2c(n1)N1CCc3cccc(c31)C(=O)N2C	%	63
COc1cc(N2CCN(C)CC2)ccc1Nc1ncc2c(n1)N1CCC[C@H]1CC(=O)N2	%	19

// query Would you mind telling me what kinase still bound, per cent of control value was observed for COc1cc(N2CCN(C)CC2)ccc1Nc1ncc2c(n1)N(C)c1ccccc1N(C)C2=O ?
// result 45

// query Requested field: kinase still bound, per cent of control. Item: COc1cc(N2CCN(C)CC2)ccc1Nc1ncc2c(n1)N(c1ccccc1)CCC(=O)N2
// result 16

// query Requested field: kinase still bound, per cent of control. Item: COc1cc(N2CCN(C)CC2)ccc1Nc1ncc2c(n1)N(C)c1ccccc1C(=O)N2
// result 8

// query Entry COc1cc(N2CCC(N3CCN(C)CC3)CC2)ccc1Nc1ncc2c(n1)N(C1CCCC1)C(C)CC(=O)N2 (stereo unspecified) has what kinase still bound, per cent of control?
// result 29

// query Which kinase still bound, per cent of control is reported for this molecule? CN1CCN(c2ccc(C(=O)Nc3ncc4c(n3)N(C)c3ccccc3C(=O)N4C)cc2)CC1
// result 83

// query Field request: kinase still bound, per cent of control | item: O=C1NC(=O)/C(=C/c2c[nH]c(=O)c(-c3ccc(N4CCNCC4)nc3)c2)S1
// result 66

// query Which measured kinase still bound, per cent of control value corresponds to CN1C(=O)c2ccccc2N(C)c2nc(NS(=O)(=O)c3ccc(N)cc3)ncc21 ?
// result 100

// query Need kinase still bound, per cent of control, item COc1cc(N2CCN(C)CC2)ccc1Nc1ncc2c(n1)N(C)c1sccc1C(=O)N2C
// result 1.8

----------
- subject_of_test: MAPK15 (human)
- test_details: KINOMEscan competition binding
- measurement_parameters: compound 10.0 µM
In this section, each of the compounds is paired with its reported kinase still bound, per cent of control.
Number in %, nothing else.

molecule	experimental_readout	result_unit	numeric_value
CS(=O)(=O)Nc1ccc(-c2cc(/C=C3\SC(=N)NC3=O)c[nH]c2=O)cc1	kinase still bound, per cent of control	%	0.1

// query Quick check: kinase still bound, per cent of control of COc1cc(N2CCN(C)CC2)ccc1Nc1ncc2c(n1)Nc1ccccc1NC2=O ?
// result 69

// query Could you tell me which kinase still bound, per cent of control is on file for COc1cc(N2CCC(O)CC2)ccc1Nc1ncc2c(n1)N1CCc3cccc(c31)C(=O)N2C ?
// result 100

// query Which kinase still bound, per cent of control is listed for N=C1NC(=O)/C(=C/c2ccc(-c3ccc(S(N)(=O)=O)cc3)o2)S1 ?
// result 5.4

// query What value of measured kinase still bound, per cent of control is listed for Nc1cccc(-c2cc(/C=C3\SC(=O)NC3=O)c[nH]c2=O)c1 ?
// result 0.55

// query Find the recorded kinase still bound, per cent of control belonging to O=C1NC(=S)S/C1=C\c1ccc(-c2cncc3ccccc23)o1 and report it.
// result 9

// query Field request: kinase still bound, per cent of control | item: N=C1NC(=O)/C(=C/c2c[nH]c(=O)c(-c3ccc(S(N)(=O)=O)cc3)c2)S1
// result 3.3

// query Which measured kinase still bound, per cent of control value corresponds to O=C1NC(=O)/C(=C/c2ccc(-c3ccc(F)cc3O)o2)S1 ?
// result 3.6

// query Reported kinase still bound, per cent of control, compound N=C1NC(=O)/C(=C/c2ccc(-c3cncc4ccccc34)o2)S1 : ____
// result 10

// query Quick one: kinase still bound, per cent of control of N=C1NC(=O)/C(=C/c2ccc(-c3ccc(F)cc3O)o2)S1 ?
// result 0.1

// query # query: kinase still bound, per cent of control of entry CN1C(=O)c2ccccc2N(C)c2nc(NS(=O)(=O)c3ccc(N)cc3)ncc21
// result 99

// query Give the measured kinase still bound, per cent of control of N=C1NC(=O)/C(=C/c2ccc(-c3ccc(C(=O)Nc4ccc(N5CCNCC5)cc4)cc3O)o2)S1 .
// result 0.95

// query # query: kinase still bound, per cent of control of entry N=C1NC(=O)/C(=C/c2ccc(-c3csc4ccccc34)o2)S1
// result 7.6

// query Entry N=C1NC(=O)/C(=C/c2ccc(-c3ccc(F)cc3)o2)S1 : reported kinase still bound, per cent of control = ?
// result 0.95

// query # input compound: CSC1=NC(=O)/C(=C/c2ccc(-c3ccc(S(N)(=O)=O)cc3)o2)S1 ; wanted: its kinase still bound, per cent of control
// result 29

// query What does the record list as kinase still bound, per cent of control for CN1CCN(c2ccc(C(=O)Nc3ncc4c(n3)N(C)c3ccccc3C(=O)N4C)cc2)CC1 ?
// result 100

// query Which measured kinase still bound, per cent of control value corresponds to COc1cc(N2CCN(C)CC2)ccc1Nc1ncc2c(n1)N(C)c1sccc1C(=O)N2C ?
// result 87

// query Quick one: kinase still bound, per cent of control for CN(C)C1=NC(=O)/C(=C/c2ccc(-c3ccc(S(N)(=O)=O)cc3)o2)S1 ?
// result 19

// query Which measured kinase still bound, per cent of control value corresponds to CS(=O)(=O)Nc1ccc(-c2cncc(/C=C3\SC(=N)NC3=O)c2)cc1 ?
// result 13

// query Query: kinase still bound, per cent of control; subject: CC(=O)Nc1ccc(-c2ccc(/C=C3\SC(=N)NC3=O)o2)c(O)c1
// result 0.4

// query For COc1cc(N2CCN(C)CC2)ccc1Nc1ncc2c(n1)N(C)c1ccccc1N(C)C2=O , what is its reported kinase still bound, per cent of control?
// result 100
